assay: Pharmacokinetics of single and repeated oral doses of PDS in healthy male subjects; assay type: in vivo, human; conditions: male, human, plasma, po, 400 mg, 400 mg q.i.d. group, Day 1 (single oral administration), n = 6; mean
Measure: Cmax (ng/mL)
Give the number; ng/mL is assumed, so skip it.

# input Please look up its Cmax: `O=S(=O)([O-])CCCS(=O)(=O)[O-].[Na+].[Na+]`
# output 496

====

assay: Pharmacokinetics of single and repeated oral doses of PDS in healthy male subjects; format: in vivo, human; conditions: male, human, plasma, po, 1600 mg, 1600 mg t.i.d. group, Day 1 (single oral administration), n = 6; mean
Measure: AUC(0-t) (ng·h/mL)
Give the number; ng·h/mL is assumed, so skip it.

# input Please look up its AUC(0-t): O=S(=O)([O-])CCCS(=O)(=O)[O-].[Na+].[Na+] [PDS]
# output 7090
